The following molecules are shown together with reported viability values.
Test: ovarian cancer cell viability with rucaparib, profiling panel, oncology-focused library, rucaparib conditional (AID 1508598)
Conditions: patient-derived ovarian cancer cells, CellTiter-Glo viability, 144 h; at 1.25 µM; OCI-P5x cells; without rucaparib; stronger effect = lower value
Numbers only; they are read as %.

Please look up its viability: `Nc1nc(Cl)nc2c1ncn2[C@H]1C[C@H](O)[C@@H](CO)O1`
37

----------
The following compounds are shown together with reported log fold change Tl+ flux values.
System: R275C
Assay: modulators of BK channel variants, profiling panel, selectivity assay, cell-based, U2OS BacMam, thallium flux, beta subunits (AID 1259406);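 note: initial slope of Thallos dye fluorescence rise after thallium is added; log ratio against the mean of 0.3% DMSO vehicle wells on the same plate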
Conditions: at 30 µM
// no unit, no text: just the number

Recorded log fold change Tl+ flux, per entry:
O=C(CSCc1csc2ccccc12)NCc1ccc2c(c1)OCO2
-0.0377
Cn1cnc([N+](=O)[O-])c1Sc1cccs1
0.00916
Clc1ccc(-c2cnc(-c3ccc(Cl)cc3)o2)cc1
0.0428

Please look up its log fold change Tl+ flux: `Cn1c(C(=O)O)ccc1S(=O)(=O)N(Cc1ccccc1)Cc1ccccc1`
0.00591

----------
Assay: inhibition of 3D7 malaria parasite growth – strain 3D7 (AID 2306);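 note: 0% = DMSO wells and 100% = chloroquine plus artemisinin control wells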
Conditions: P. falciparum 3D7 erythrocytic growth, LDH absorbance, 72 h; at 2 µM; stronger effect = higher value
The following compounds are shown together with reported growth inhibition values.
Numbers only; they are read as %.

Recorded growth inhibition, per entry:
O=C(Nc1cccc(-c2nn3ccccc3c2-c2ccnc(Nc3ccc(C(=O)N4CCOCC4)cc3)n2)c1)c1c(F)cccc1F
99
O=C(Nc1ccc(N2CCN(Cc3ccccc3)CC2)cc1)c1cccs1
87
CC(=O)Nc1ccc(COc2ccc(Nc3ccnc4cc(-c5ccccn5)ccc34)cc2)cc1
99
COC(=O)CNC(c1ccccc1)c1cc(Br)ccc1NC(=O)c1ccccc1Br (centres undefined)
99
N#Cc1cccc(CN2CCCN(Cc3cccc(C(=O)Nc4ccc(Cl)cc4)c3)CC2)c1
82

Please look up its growth inhibition: `O=C(N[C@@H](Cc1ccccc1)[C@H](O)CNC1CCOCC1)c1cc(C2CCCC2)cc(N2CCCCS2(=O)=O)c1`
100

Please look up its growth inhibition: `CN(C)C(=S)N=Nc1c(O)[nH]c2ccccc12`
95

Please look up its growth inhibition: `CN(Cc1cnc2nc(N)nc(N)c2n1)c1ccc(C(=O)N[C@H](CCC(=O)OC(C)(C)C)C(=O)N[C@@H](CCC(=O)OC(C)(C)C)C(=O)OC(C)(C)C)cc1`
85

Please look up its growth inhibition: `Cc1ccc(O)cc1Nc1ccnc2cc(-c3ccncc3)ccc12`
100

----------
Assay: differential killing of epithelial or mesenchymal cells, primary screen, imaging, PC-3E GFP, TEM4-18 mCherry, co-culture (AID 1345086);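 note: cells exposed to compound for 72 h before imaging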
Settings: imaging cell counts, measured here: mesenchymal TEM4-18 mCherry cell survival, at 1 µM
Decide by normalised cell number: equal to or exceeding 1 means MET, less means NOT MET.

O=C(O)c1cn(C2CC2)c2cc(N3CCN(c4ncncn4)CC3)c(F)cc2c1=O
MET

Moving on to the next compound.
Entry `CCCC[C@@H](CC)COC(=O)C(C#N)=C(c1ccccc1)c1ccccc1` : is its normalised cell number no less than 1?
MET

----------
Assay: antimalarial activity against Dd2 strain (AID 2302);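 note: 0% = DMSO untreated growth and 100% = chloroquine plus artemisinin killed control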
Settings: P. falciparum Dd2 in RBCs, LDH growth readout, 72 h; at 2 µM; stronger effect = higher value
Field: class. Source value: growth inhibition. Ranges: lower level (below 50%), middle level (50% to below 90%), upper level (90% or more)

Sample answers from the record:
COc1ccc(Nc2nccc(-c3cccc(NC(=O)c4cc5cc(F)ccc5[nH]4)c3)n2)cc1
lower level
N#Cc1cccc(Nc2nccc(NCC(O)c3cccc(C(F)(F)F)c3)n2)c1 (stereo not given)
middle level
COc1ccc(NC(=O)/C=C/c2ccccc2Cl)cc1OCCN1CCC(Cc2cc3ccccc3[nH]2)CC1
lower level

Assign a category based on measured growth inhibition for `Oc1ccc2[nH]c(-c3cccc(F)c3)nc2c1CN1CCC(N2CCCC2)CC1` and give only the class name.
middle level

Assign a category based on measured growth inhibition for `Cc1ccc(C2CCN(CCCCNC(=O)c3ccc(NC(=O)c4ccc(Cl)cc4)cc3)CC2)c(OCC(F)(F)F)c1` and give only the class name.
middle level

Assign a category based on measured growth inhibition for `Cc1cc(OCCCN2CCC(NS(=O)(=O)c3ccc(C(F)(F)F)cc3)CC2)c2ccccc2n1` and give only the class name.
lower level

Assign a category based on measured growth inhibition for OC(c1cc(C(F)(F)F)nc2c(C(F)(F)F)cccc12)C1CCCCN1 (stereo not given) and give only the class name.
upper level

Assign a category based on measured growth inhibition for N=c1n(CCN2CCCCC2)c2ccccc2n1CC(O)c1cccc(Br)c1 (stereo not given) and give only the class name.
lower level

Assign a category based on measured growth inhibition for COc1cccc(C(=O)NC(C=Cc2ccccc2)c2cc(Cl)c3cccnc3c2O)c1 (stereo not given) and give only the class name.
middle level

Assign a category based on measured growth inhibition for `NC(N)=NC(=O)Nc1ccc(Cl)c(C(F)(F)F)c1` and give only the class name.
lower level

Assign a category based on measured growth inhibition for `CS(=O)(=O)Cc1ccc(Nc2nccc(-c3c(-c4cccc(NC(=O)c5c(F)cccc5F)c4)nn4ccccc34)n2)cc1` and give only the class name.
middle level

----------
The following compounds are shown together with reported inhibition values.
Test: ICB984 medulloblastoma cell growth inhibition, synergistic combos for chromothripsis tumors, cisplatin or BGB combos (AID 1671451);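 note: cells exposed for 96 hours before readout; 0% = vehicle DMSO and 100% = killing by high DMSO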
Settings: ICB984 medulloblastoma cells, drug combinations, measured here: 5 uM single agent, at 5 µM, stronger effect = higher value
Numbers only; they are read as %.

O=c1cc(-c2cccc3c2Sc2ccccc2S3)oc(N2CCOCC2)c1
-22.7

Please look up its inhibition: `CCc1c2c(nc3ccc(O)cc13)-c1cc3c(c(=O)n1C2)COC(=O)[C@]3(O)CC`
-16.8

Please look up its inhibition: `CC(C)N=c1cc2n(-c3ccc(Cl)cc3)c3ccccc3nc-2cc1Nc1ccc(Cl)cc1`
1.51

Please look up its inhibition: NC(=O)c1ncn(C2OC(CO)C(O)C2O)n1 (centres undefined)
-2.81

----------
Assay: HepG2 cytotoxicity, primary screen, cytotoxicity control for P. falciparum antimalarial project, cell-based, ATP luminescence (AID 2303);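 note: 0% = DMSO wells and 100% = digitonin-killed cells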
Conditions: HepG2 viability, 24-48 h, at 10 µM, stronger effect = higher value
Threshold check on inhibition: strictly below 30% is 1; on or above 30% is 0.

Sample answers from the record:
COc1ccc2nccc(NC(=O)N3CCC(NCCOc4cc(F)cc(F)c4)CC3)c2n1
1
CC(Oc1ccc(Cl)cc1)C(=O)N(C)C1CCN(CCCCCNC(=O)/C=C/c2ccc(Cl)c(Cl)c2)CC1 (centres undefined)
0
CCOc1c(CNCCCNc2nc3ccccc3[nH]2)cc(Br)cc1OC
1
CC(C)Cn1cc(C2CCN(CCN3CCC(CNC(=O)c4ccc(NC(=O)c5cc(Cl)cc(Cl)c5)cc4)CC3)CC2)c2ccccc21
0
O=C(Nc1cccc(-c2nn3ncccc3c2-c2ccnc(Nc3cccc(C(F)(F)F)c3)n2)c1)c1c(F)cccc1F
0
COc1ccc(CN2CCCN(Cc3cccc(NC(=O)c4ccc5ccccc5c4)c3)CC2)cc1
1
COc1cccc(CNCC(C)(C)c2nc(-c3ccc(Cl)c(O)c3)c(-c3ccncc3)[nH]2)c1
0
NS(=O)(=O)c1cccc(N=Cc2c(O)[nH]c3ccc(S(=O)(=O)Cc4c(Cl)cccc4Cl)cc23)c1
1

Moving on to the next compound.
Does the reported inhibition of `O=C(Nc1cccc(-c2nn3ccccc3c2-c2ccnc(Nc3cccc(-c4cnco4)c3)n2)c1)C1CCCCC1` stay below 30%?
0

----------
Assay: LFS_MB_P medulloblastoma growth inhibition, cell-based, chromothripsis tumors, cisplatin or BGB combos (AID 1671449);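 note: cells exposed for 96 hours; 0% = vehicle DMSO and 100% = killing by high DMSO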
Details: LFS_MB_P medulloblastoma cells, measured here: combination with BGB IC40, at 0.05 µM
Endpoint name: inhibition (%)
Numbers only; they are read as %.

Please look up its inhibition: `O=C(Nc1ccccc1)c1ccccc1O`
-10.8

Please look up its inhibition: `O=c1cc(-c2cccc3c2Sc2ccccc2S3)oc(N2CCOCC2)c1`
-27.2

Please look up its inhibition: `CO[C@H]1/C=C/O[C@@]2(C)Oc3c(C)c(O)c4c(O)c(c(C=NN5CCN(C)CC5)c(O)c4c3C2=O)NC(=O)/C(C)=C\C=C\[C@H](C)[C@H](O)[C@@H](C)[C@@H](O)[C@@H](C)[C@H](OC(C)=O)[C@@H]1C`
7.63

----------
The following compounds are shown together with reported z-score values.
Experiment: survival rescue of mitochondrial mutant cells in low glucose, primary screen, MELAS cybrids, Rieske KO mouse fibroblasts, CellTiter-Glo (AID 1508586);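 note: z relative to plate mean and SD of compound and empty wells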
Conditions: MELAS cybrid survival, CellTiter-Glo 48 h, stronger effect = higher value
Calls of active or inactive are those of the source.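 How the source made its calls: active means mean z-score across replicates of 1.96 or higher in either the MELAS or the Rieske mutant cell line; inactive means the rest.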

Recorded z-score, per entry:
COc1cc2nccc(Oc3ccc(NC(=O)Nc4ccc(F)cc4F)c(F)c3)c2cc1OC
-0.553 (inactive)
COc1cc(OC)c(NC(=O)Nc2cc(C)on2)cc1Cl
-0.366 (inactive)
O=C(Nc1ccccc1)c1ccccc1O
-0.183 (inactive)

Please look up its z-score: `CCc1c2c(nc3ccc(O)cc13)-c1cc3c(c(=O)n1C2)COC(=O)[C@]3(O)CC`
0.182 (inactive)

Please look up its z-score: `CN1C(C(=O)Nc2ccccn2)=C(O)c2sc(Cl)cc2S1(=O)=O`
-0.192 (inactive)

Please look up its z-score: COc1ccc2[nH]c(S(=O)Cc3ncc(C)c(OC)c3C)nc2c1 (stereo unspecified)
-0.201 (inactive)
